Assay: melting temperature; fluorescence melt of hairpins on a sequencing array, two-state fit, raised by 9.35 °C to match UV melts
Conditions: sodium 0.088 M

- sequence chain: "GATCCAGGTTGGATC ((((((...))))))"
  Tm: "50.7 °C"
- sequence chain: "GCCTCGCGAAAGCCCGGC (((..((....))..)))"
  Tm: "42.8 °C"
- sequence chain: "GCACACGCGAAAGCGTGC (((..(((....))))))"
  Tm: "45 °C"
- sequence chain: "CGCCCGGAAACGGAAGCG ((((((....)))..)))"
  Tm: "49.3 °C"
- sequence chain: "GCTGCGCGAAAGCCCTGC ((.(.((....)).).))"
  Tm: "38.5 °C"
- sequence chain: "GCACAGGGAAACCTACGC ((..(((....)))..))"
  Tm: "34.9 °C"
